Data origin: ChEMBL document CHEMBL1153349

System: Rattus norvegicus
Assay: AUC in rat plasma at 3 mg/kg, iv and po
Format: ADME, organism-based
Set-up: dose 3 mg/kg, route oral
Conditions: in vivo

Input smiles: CCN(C(=O)C(=O)N(C)C)c1cccn2c(=O)c(O)c(C(=O)NCc3ccc(F)cc3)nc12
Value units: µM·h
AUC: 2.9

* * *

IC50: recorded values
Target: Human immunodeficiency virus type 1 integrase (Human immunodeficiency virus 1, UniProt Q7ZJM1)
Sequence (Q7ZJM1 whole entry): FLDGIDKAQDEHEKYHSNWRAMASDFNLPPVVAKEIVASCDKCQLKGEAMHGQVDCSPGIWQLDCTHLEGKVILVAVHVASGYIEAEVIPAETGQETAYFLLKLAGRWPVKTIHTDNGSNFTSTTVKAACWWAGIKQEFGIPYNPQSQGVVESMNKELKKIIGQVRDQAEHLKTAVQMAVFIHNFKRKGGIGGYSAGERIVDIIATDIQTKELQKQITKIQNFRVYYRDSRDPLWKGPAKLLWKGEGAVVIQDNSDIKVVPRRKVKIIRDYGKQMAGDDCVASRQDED
Experiment: Inhibition of HIV1 recombinant integrase strand transfer activity

Input smiles: CCN(C(=O)C(=O)N1CCCC1)c1cccn2c(=O)c(O)c(C(=O)NCc3ccc(F)cc3)nc12
IC50 / µM: 0.021
--
Input smiles: CN(C)C(=O)C(=O)N(C)c1cccn2c(=O)c(O)c(C(=O)NCc3ccc(F)cc3)nc12
IC50 / µM: 0.026
--
Input smiles: O=C(NCc1cccn2c(=O)c(O)c(C(=O)NCc3ccc(F)cc3)nc12)c1ccccc1
IC50 / µM: 0.024
--
Input smiles: CCN(C(=O)C(=O)N1CCN(C)CC1)c1cccn2c(=O)c(O)c(C(=O)NCc3ccc(F)cc3)nc12
IC50 / µM: 0.021
--
Input smiles: CCN(C(=O)C(=O)N1CCOCC1)c1cccn2c(=O)c(O)c(C(=O)NCc3ccc(F)cc3)nc12
IC50 / µM: 0.025
--
Input smiles: O=C(NCc1ccc(F)cc1)c1nc2c(CN3CCOCC3)cccn2c(=O)c1O
IC50 / µM: 0.17
--
Input smiles: CCN(C(=O)CN(C)C)c1cccn2c(=O)c(O)c(C(=O)NCc3ccc(F)cc3)nc12
IC50 / µM: 0.185
--
Input smiles: O=C(Nc1cccn2c(=O)c(O)c(C(=O)NCc3ccc(F)cc3)nc12)c1ccccc1
IC50 / µM: 0.018
--
Input smiles: CCN(C(=O)c1cscn1)c1cccn2c(=O)c(O)c(C(=O)NCc3ccc(F)cc3)nc12
IC50 / µM: 0.021
--
Input smiles: CCN(CC)C(=O)C(=O)N(CC)c1cccn2c(=O)c(O)c(C(=O)NCc3ccc(F)cc3)nc12
IC50 / µM: 0.019
--
Input smiles: CNc1cccn2c(=O)c(O)c(C(=O)NCc3ccc(F)cc3)nc12
IC50 / µM: 0.13
--
Input smiles: O=C(NCc1ccc(F)cc1)c1nc2ccccn2c(=O)c1O
IC50 / µM: 0.022
--
Input smiles: CCN(C(=O)c1nnc(C)o1)c1cccn2c(=O)c(O)c(C(=O)NCc3ccc(F)cc3)nc12
IC50 / µM: 0.05
--
Input smiles: CC(C)N(C(=O)C(=O)N(C)C)c1cccn2c(=O)c(O)c(C(=O)NCc3ccc(F)cc3)nc12
IC50 / µM: 0.021
--
Input smiles: Cc1cccn2c(=O)c(O)c(C(=O)NCc3ccc(F)cc3)nc12
IC50 / µM: 0.009
--
Input smiles: CC(=O)N1CCN(Cc2cccn3c(=O)c(O)c(C(=O)NCc4ccc(F)cc4)nc23)CC1
IC50 / µM: 0.185
--
Input smiles: CCN(C(=O)C(=O)N(C)C)c1cccn2c(=O)c(O)c(C(=O)NCc3ccc(F)cc3)nc12
IC50 / µM: 0.036
--
Input smiles: CCN(C(=O)c1ccno1)c1cccn2c(=O)c(O)c(C(=O)NCc3ccc(F)cc3)nc12
IC50 / µM: 0.018
--
Input smiles: CCN(C(=O)c1ccccn1)c1cccn2c(=O)c(O)c(C(=O)NCc3ccc(F)cc3)nc12
IC50 / µM: 0.021
--
Input smiles: CN(C)c1cccn2c(=O)c(O)c(C(=O)NCc3ccc(F)cc3)nc12
IC50 / µM: 0.07
--
Input smiles: CCCN(C(=O)C(=O)N(C)C)c1cccn2c(=O)c(O)c(C(=O)NCc3ccc(F)cc3)nc12
IC50 / µM: 0.018
--
Input smiles: CCNc1cccn2c(=O)c(O)c(C(=O)NCc3ccc(F)cc3)nc12
IC50 / µM: 0.036
--
Input smiles: CCN(C(=O)CN1CCOCC1)c1cccn2c(=O)c(O)c(C(=O)NCc3ccc(F)cc3)nc12
IC50 / µM: 0.023
--
Input smiles: CCN(C(=O)c1ccncc1)c1cccn2c(=O)c(O)c(C(=O)NCc3ccc(F)cc3)nc12
IC50 / µM: 0.05
